B1: TPR 5TU (parent)
chain: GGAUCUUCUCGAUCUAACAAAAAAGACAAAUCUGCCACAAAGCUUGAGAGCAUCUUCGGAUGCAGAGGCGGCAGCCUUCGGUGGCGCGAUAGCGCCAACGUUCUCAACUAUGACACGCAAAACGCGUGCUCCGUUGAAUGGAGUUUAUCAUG

Variants of: B1
EXPERIMENT: polymerase ribozyme fitness, log enrichment relative to wild type (log ratio); higher = more active; in vitro selection for triplet polymerase activity
Fewer inactive variants are shown than the library holds.
MEASURED_QUANTITY: polymerase ribozyme fitness (log ratio)
Answers are plain numbers.

MUT	DATA_VALUE
A20G A73U G83A	-2.36
U55A A73G A89G G136A	-0.934
A37C C95U G141C	-1.7
A37U U101G U134G G141A	-4.08
A40C U56A C57U G140C	-3.75
A3U A12G A22C A37U A47G A97G	-3.5

For each of the variants below, note its polymerase ribozyme fitness (log ratio).
1. G92U A113C
2. U104G U109A G133C
3. U56A C95U C99U C125G

(A)
1. -2.78
2. -2.78
3. -2.57
